Target: Neurolysin (Nln) as used for the A50 and Amax values of Tables 2 and 5
Test: cell-based or functional assay
assay.readout: Amax (%)

Looking for the measured Amax of HP [His-Pro] , can you help?
502

Also need HW [His-Trp] , thanks.
440

Also need HF [His-Phe] , thanks.
573

Also need HY [NlnA#1, NSC 374121, L-histidyl-L-tyrosine] , thanks.
467

All values here come from patent US20210198647A1.
